# Tested on: A549 (lung adenocarcinoma)
# Experiment Description: Antiproliferative activity (CCK-8 cell viability), A549
# Assay type: cell-based
# Test Settings: Homo sapiens, Compound concentration: 10 μM, 72 h, read-out: Antiproliferative activity in cancerous cells, A549 (inhibition of cell growth)
Recorded inhibition at 10 µM values for a group of molecules are listed next.

// below: answered molecules
{"Item Smiles": "CC1=C(CC(=O)O)c2cc(F)ccc2/C1=C/c1cccc(Oc2cccc(C(F)(F)F)c2)c1", "inhibition at 10 µM": "30 to 50%"}
{"Item Smiles": "CCc1ccc2c(c1)C(CC(=O)O)=C(C)/C2=C/c1ccc(COc2ccc(F)cc2)cc1", "inhibition at 10 µM": "≥ 50%"}
{"Item Smiles": "CC1=C(CC(=O)O)c2cc(F)ccc2/C1=C\\c1ccc(C(=O)c2cc3ccccc3s2)cc1", "inhibition at 10 µM": "≥ 50%"}
{"Item Smiles": "CC1=C(CC(=O)O)c2cc(F)ccc2/C1=C\\c1ccc(CCCc2ccc(Cl)cc2)cc1", "inhibition at 10 µM": "≥ 50%"}
{"Item Smiles": "O=C(O)CC1=C(Cc2ccc(Oc3ccc(F)cc3)cc2)/C(=C/C2CC2)c2ccc(F)cc21", "inhibition at 10 µM": "≥ 50%"}
{"Item Smiles": "CC1=C(CC(=O)O)c2cc(F)ccc2/C1=C\\c1ccc(OC2CCC(F)(F)CC2)cc1", "inhibition at 10 µM": "≥ 50%"}
{"Item Smiles": "CCOCc1ccc(/C=C2/C(C)=C(CC(=O)O)c3cc(F)ccc32)cc1", "inhibition at 10 µM": "30 to 50%"}
{"Item Smiles": "CC1=C(CC(=O)O)c2cccc(F)c2/C1=C/c1cccc(COc2ccccc2)c1", "inhibition at 10 µM": "≥ 50%"}
{"Item Smiles": "COc1ccc(Oc2ccc(/C=C3/C(C)=C(CC(=O)O)c4cc(F)ccc43)cc2)cc1Cl", "inhibition at 10 µM": "30 to 50%"}
{"Item Smiles": "CC1=C(CC(=O)O)c2cc(F)ccc2/C1=C\\c1ccc(COc2ccc(Cl)cc2)cc1C", "inhibition at 10 µM": "≥ 50%"}

Give the value of inhibition at 10 µM reported for the following: CC1=C(CC(=O)O)c2cc(Cl)ccc2/C1=C\c1ccc(Oc2ccc(F)c(F)c2)cc1 ≥ 50%

Give the value of inhibition at 10 µM reported for the following: CC1=C(CC(=O)O)c2ccc(F)cc2/C1=C\c1ccc(COc2ccccc2)cc1 < 30%

Give the value of inhibition at 10 µM reported for the following: CC1=C(CC(=O)O)c2cc(Cl)ccc2/C1=C\c1cccc(Oc2ccc(C(F)(F)F)cc2)c1 ≥ 50%

Give the value of inhibition at 10 µM reported for the following: CC1=C(CC(=O)O)c2ccc(F)c(F)c2/C1=C\c1ccc(Oc2ccc(F)cc2)cc1 30 to 50%

Give the value of inhibition at 10 µM reported for the following: CC1=C(CC(=O)O)c2cc(F)ccc2/C1=C\c1ccc(Sc2ccc(F)cc2)cc1 ≥ 50%

Give the value of inhibition at 10 µM reported for the following: CC1=C(CC(=O)O)c2cc(F)ccc2/C1=C\c1ccc(CO)cc1 ≥ 50%

Give the value of inhibition at 10 µM reported for the following: COc1cc(Oc2ccc(/C=C3/C(C)=C(CC(=O)O)c4cc(F)ccc43)cc2)ccc1Cl 30 to 50%

Give the value of inhibition at 10 µM reported for the following: CC1=C(CC(=O)O)c2cc(C)ccc2/C1=C\c1ccc(CCc2ccccc2)cc1 ≥ 50%

Give the value of inhibition at 10 µM reported for the following: CCc1ccc2c(c1)/C(=C\c1ccc(COc3ccccc3)cc1)C(C)=C2CC(=O)O 30 to 50%

Give the value of inhibition at 10 µM reported for the following: O=C(O)CC1=C(Cc2ccc(Oc3ccc(F)cc3)cc2)/C(=C/c2ccc(N3CCOCC3)cc2)c2ccc(F)cc21 ≥ 50%
